# system-name: H^+/K^+-ATPase (Sus scrofa, UniProt P19156)
# Construct: Microsomes of porcine gastric mucosal (rich in H^+/K^+-ATPase) obtained by sucrose gradient centrifugation
# Sequence (P19156 2-1034 limits assumed): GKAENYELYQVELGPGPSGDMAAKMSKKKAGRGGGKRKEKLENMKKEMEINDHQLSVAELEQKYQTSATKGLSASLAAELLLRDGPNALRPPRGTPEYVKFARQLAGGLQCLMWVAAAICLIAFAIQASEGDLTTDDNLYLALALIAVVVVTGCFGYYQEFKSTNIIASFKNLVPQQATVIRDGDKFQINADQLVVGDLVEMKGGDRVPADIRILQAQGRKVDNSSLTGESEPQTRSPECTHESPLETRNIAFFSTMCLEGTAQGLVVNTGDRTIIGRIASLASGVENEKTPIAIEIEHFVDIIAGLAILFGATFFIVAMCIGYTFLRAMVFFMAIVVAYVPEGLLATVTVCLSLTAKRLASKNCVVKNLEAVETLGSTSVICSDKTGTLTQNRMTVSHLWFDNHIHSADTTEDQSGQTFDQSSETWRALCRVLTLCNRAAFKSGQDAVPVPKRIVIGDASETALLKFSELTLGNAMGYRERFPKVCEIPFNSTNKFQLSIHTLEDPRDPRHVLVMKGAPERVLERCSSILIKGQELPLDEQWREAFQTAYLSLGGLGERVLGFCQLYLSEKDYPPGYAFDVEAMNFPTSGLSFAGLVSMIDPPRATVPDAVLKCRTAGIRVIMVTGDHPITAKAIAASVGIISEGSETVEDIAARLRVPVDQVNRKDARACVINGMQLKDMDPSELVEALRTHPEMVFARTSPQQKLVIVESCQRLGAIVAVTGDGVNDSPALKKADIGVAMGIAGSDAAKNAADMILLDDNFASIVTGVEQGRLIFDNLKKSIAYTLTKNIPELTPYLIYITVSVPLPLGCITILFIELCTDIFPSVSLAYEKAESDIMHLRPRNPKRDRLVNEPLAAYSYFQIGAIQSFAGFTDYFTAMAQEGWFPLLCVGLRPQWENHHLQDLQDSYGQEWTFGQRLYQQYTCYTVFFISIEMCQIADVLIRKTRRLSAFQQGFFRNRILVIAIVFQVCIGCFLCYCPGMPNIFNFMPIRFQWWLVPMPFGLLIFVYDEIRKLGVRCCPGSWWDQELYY
# Sequence (P18434 whole entry partner): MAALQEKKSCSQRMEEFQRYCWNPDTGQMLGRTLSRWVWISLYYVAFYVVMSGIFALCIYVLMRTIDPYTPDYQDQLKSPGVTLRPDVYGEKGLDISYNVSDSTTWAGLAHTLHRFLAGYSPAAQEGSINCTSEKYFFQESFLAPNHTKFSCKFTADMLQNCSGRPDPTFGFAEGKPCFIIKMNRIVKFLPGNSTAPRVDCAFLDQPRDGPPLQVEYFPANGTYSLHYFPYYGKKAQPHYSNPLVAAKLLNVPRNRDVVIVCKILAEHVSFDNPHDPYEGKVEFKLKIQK
# measurement-notes: H+/K+-ATPase enzyme activity inhibition (malachite green, microsomes of porcine gastric mucosa)
# recorded-conditions: pH 6.5, 10 mmol/L KCl, 37° C. 30 min
property: IC50
Record the result as a number with its unit.

[
  {
    "compound-structure": "CNCc1cc(-c2ccccc2F)n(S(=O)(=O)c2cccc(OCC(=O)NCCCO)c2)c1",
    "IC50": "61 nM"
  },
  {
    "compound-structure": "CNCc1cc(-c2ccccc2F)n(S(=O)(=O)c2cccc(OCC(=O)NC)c2)c1",
    "IC50": "21 nM"
  },
  {
    "compound-structure": "CNCc1cc(-c2ccccc2F)n(S(=O)(=O)c2ccc(OCC(=O)NC)cc2)c1",
    "IC50": "63 nM"
  },
  {
    "compound-structure": "CNCc1cc(-c2ccccc2F)n(S(=O)(=O)c2cccc(OCC3(C(=O)NC)CC3)c2)c1",
    "IC50": "81 nM"
  },
  {
    "compound-structure": "CNCc1cc(C2=CCCCC2)n(S(=O)(=O)c2cccc(OCC(=O)NC3CC3)c2)c1",
    "IC50": "95 nM"
  }
]

Q: What value of measured IC50 is listed for CNCc1cc(-c2ccccc2F)n(S(=O)(=O)c2ccc(OCC3(C(=O)NC)CC3)cc2)c1 ?
A: 106 nM

Q: Requested field: IC50. Item: CNCc1cc(-c2ccccc2F)n(S(=O)(=O)c2cccc(OCC(=O)NCCO)c2)c1
A: 49 nM
